Quick reference for absorbance at 450 nm among some binders
molecular target: T1, Claudin 18.2 VLP (UniProt P56856 1-261); test: ELISA, coated antigen 200 ng/well; antibody 0.014 ug/mL
T1 construct: Antigen coated on ELISA plates, 200 ng/well; source and construct not described; also called Claudin18.2-VLP protein; Claudin18.2 VLP antigen
Output spec: single numeric token, no unit.

Consider the binder 8-hIgG1Fc (Fc fusion, VHH-hIgG1Fc recombinant antibody; also called 8-hlgG1 Fc; VHH-hIgG1Fc recombinant antibody of clone 8; not shown: human IgG1 Fc (hIgG1Fc)) QVQLVESGGGLVQPGGSLRLSCAASGSIFGLNFMGWWRQAPGSQRELVAIATSGGSIQYGDSVKGRFTISRDNAKNTVYLQMASLKPEDTAVYYCNVHTYDFLGRDYWGQGTQVTVSL and give its measured absorbance at 450 nm.
0.326

Fill in: absorbance at 450 nm of 1-hIgG1Fc (Fc fusion, VHH-hIgG1Fc recombinant antibody; also called 1-hlgG1Fc; VHH-hIgG1Fc recombinant antibody of clone 1; not shown: human IgG1 Fc (hIgG1Fc)) EVQLVGSGGGLVQPGGSLRLSCAASGSILNLMTTGWYRQAPGKQRDLVATITFGGTTNYADSVKGRFTISRDKSKNTAYLQMDNLKPEDTAVYFCYADVIVGFQDRRVAWDAGTQVTVSS is ___
0.282

Query (binder): 10-hIgG1Fc (Fc fusion, VHH-hIgG1Fc recombinant antibody; also called 10-hlgG1Fc; VHH-hIgG1Fc recombinant antibody of clone 10; not shown: human IgG1 Fc (hIgG1Fc)) QVQLAESGGGLVQPGGSLRLSCAASGNILSINYMGWYRQAPGKERELVATITRGGTTNYQGDLKGRFIISGDNTKDTVYLQMNNLQPEDTAVYYCYFRINFGILGGLRDYWGQGTQVTVSS ; field requested: absorbance at 450 nm
0.329

Query (binder): 5-hIgG1Fc (Fc fusion, VHH-hIgG1Fc recombinant antibody; also called 5-hlgG1Fc; VHH-hIgG1Fc recombinant antibody of clone 5; not shown: human IgG1 Fc (hIgG1Fc)) QVQLVESGGGLVQTGGSLRLSCAASDSTFSSYIMGWFRQAPGKEREFVAGITWSGGIKDYADSVKGRFTIARDNAKNTVYLQMNSLKPEDAAIYYCAANAIQLTRRSGDYAYWGQGTQVTVSS ; field requested: absorbance at 450 nm
0.274
